Data provenance: ChEMBL document CHEMBL6177962

system: PC-12; experiment: Cytotoxicity against rat PC12 cells assessed as cell viability at 10 uM incubated for 24 hrs by CCK-8 assay relative to control; type: functional; settings: read-out: Activity
// boundary case: viability at 10 µM equal to 70% maps to F; strictly smaller maps to T

* COc1cc(C(=O)/C=C/c2ccc(OC)c3oc(-c4ccc(C)cc4)cc23)ccc1F | F
* COC(=O)[C@@H]1CCC(=O)N1C(=O)/C=C/c1ccc(OC)c2oc(-c3ccc(C)cc3)cc12 | F
* COC(=O)[C@@H](NC(=O)/C=C/c1ccc(OC)c2oc(-c3ccc(C)cc3)cc12)c1ccccc1 | F

Hi there! Is viability at 10 µM for COc1ccc(/C=C/C(=O)c2ccc(O)c(O)c2)c2cc(-c3ccc(C)cc3)oc12 below 70%, do you know?
F

Hi there! Is viability at 10 µM for COc1cccc(C(=O)/C=C/c2ccc(OC)c3oc(-c4ccc(C)cc4)cc23)c1OC below 70%, do you know?
T

Hi there! Is viability at 10 µM for COc1cc(C(=O)/C=C/c2ccc(OC)c3oc(-c4ccc(C)cc4)cc23)ccc1O below 70%, do you know?
T

Hi there! Is viability at 10 µM for COc1cc(OC)cc(-c2cc3c(/C=C/C(=O)c4cc(OC)c(OC)c(OC)c4)ccc(OC)c3o2)c1 below 70%, do you know?
F

Hi there! Is viability at 10 µM for COc1cc(OC)cc(C(=O)/C=C/c2ccc(OC)c3oc(-c4ccc(C)cc4)cc23)c1 below 70%, do you know?
F

Hi there! Is viability at 10 µM for COC(=O)[C@H](Cc1c[nH]c2ccccc12)NC(=O)/C=C/c1ccc(OC)c2oc(-c3ccc(C)cc3)cc12 below 70%, do you know?
T

Hi there! Is viability at 10 µM for COc1ccc(/C=C/C(=O)NCCc2ccccc2)c2cc(-c3ccc(C)cc3)oc12 below 70%, do you know?
F

Hi there! Is viability at 10 µM for COc1ccc(C(=O)/C=C/c2ccc(OC)c3oc(-c4ccc(C)cc4)cc23)cc1F below 70%, do you know?
T

Hi there! Is viability at 10 µM for COc1ccc(-c2cc3c(/C=C/C(=O)c4cc(OC)c(OC)c(OC)c4)ccc(OC)c3o2)cc1 below 70%, do you know?
T

Hi there! Is viability at 10 µM for COC(=O)[C@H](Cc1c[nH]c2ccccc12)NC(=O)/C=C/c1ccc(OC)c2oc(-c3ccc(OC)cc3)cc12 below 70%, do you know?
F

Hi there! Is viability at 10 µM for COC(=O)[C@@H]1CCCN1C(=O)/C=C/c1ccc(OC)c2oc(-c3ccc(C)cc3)cc12 below 70%, do you know?
T

Hi there! Is viability at 10 µM for COc1ccc(-c2cc3c(/C=C/C(=O)c4cc(OC)c(OC)c(OC)c4)ccc(OC)c3o2)cc1OC below 70%, do you know?
F

----------
test system: PC-12; experiment: Cytotoxicity against rat PC12 cells assessed as cell viability at 10 uM incubated for 24 hrs by CCK-8 assay relative to control; format: functional; conditions: read-out: Activity
recordedEndpoint: viability at 10 µM (%)
Write the answer as a number in %, unit excluded.

Solved entries (count: 4):
* COc1ccc(C(=O)/C=C/c2ccc(OC)c3oc(-c4ccc(C)cc4)cc23)c(OC)c1OC | 71.9
* COc1cc(C(=O)/C=C/c2ccc(OC)c3oc(-c4ccc(C)cc4)cc23)cc(OC)c1O | 37.7
* COC(=O)CNC(=O)/C=C/c1ccc(OC)c2oc(-c3ccc(C)cc3)cc12 | 68.9
* COc1ccc(/C=C/C(=O)NCCc2ccc(O)c(O)c2)c2cc(-c3ccc(C)cc3)oc12 | 99.3

# next compound below
Please indicate recorded viability at 10 µM of CCCC[C@H](NC(=O)/C=C/c1ccc(OC)c2oc(-c3ccc(C)cc3)cc12)C(=O)OC measured with PC-12.
56
